Target or test system: CDK5/p25 (Homo sapiens, UniProt Q00535)
Sequence (Q00535 whole entry): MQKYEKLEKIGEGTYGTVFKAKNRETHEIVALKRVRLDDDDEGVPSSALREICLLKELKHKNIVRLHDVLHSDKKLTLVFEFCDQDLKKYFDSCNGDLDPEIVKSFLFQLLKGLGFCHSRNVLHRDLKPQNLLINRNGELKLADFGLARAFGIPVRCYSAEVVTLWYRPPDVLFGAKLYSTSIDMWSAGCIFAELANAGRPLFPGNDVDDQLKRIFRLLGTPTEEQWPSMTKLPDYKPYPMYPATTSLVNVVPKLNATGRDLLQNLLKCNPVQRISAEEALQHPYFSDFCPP
Sequence (Q15078 99-307 partner limits assumed): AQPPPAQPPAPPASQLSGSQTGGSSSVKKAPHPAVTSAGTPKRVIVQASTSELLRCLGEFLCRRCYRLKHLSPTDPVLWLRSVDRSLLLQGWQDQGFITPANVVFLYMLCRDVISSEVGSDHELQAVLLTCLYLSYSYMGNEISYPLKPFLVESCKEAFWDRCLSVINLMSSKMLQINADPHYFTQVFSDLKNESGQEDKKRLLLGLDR
Procedure summary: CDK5 mobility shift assay (enzymatic activity of CDK5/p25)
Type: biochemical
Assay context: 0.154 nM CDK5/p25, FL peptide 29, 60 min at room temperature; read-out: CDK5 IC50
pIC50: −log10 of the molar value.
Measurement name: pIC50

{"columns": ["Compound", "Target or test system", "pIC50"],
 "data": [
  ["NC(=O)c1cccc(Nc2cc3nc(SC4CCNCC4)ccc3cn2)c1", "CDK5/p25 (Homo sapiens, UniProt Q00535)", "> 8.00"]
]}

Q: For the compound "CN1CCC(C)(Nc2ccc3cnc(Nc4ccc(-n5ccc(CO)n5)cc4F)cc3n2)CC1" , what pIC50 is on record?
Ans: 6.00 to 7.00

Q: For the compound "CN1CCC(S(=O)(=O)c2ccc3cnc(Nc4ccc5oc(=O)ccc5c4)cc3n2)CC1" , what pIC50 is on record?
Ans: > 8.00

Q: For the compound CN1CCC(C(C)(O)c2ccc3cnc(Nc4ccc(-c5cncnc5)cc4F)cc3n2)CC1 (stereo not shown) , what pIC50 is on record?
Ans: > 8.00

Q: For the compound "CN1CCC([C@@](C)(O)c2ccc3cnc(Nc4ccccc4)cc3n2)CC1" , what pIC50 is on record?
Ans: > 8.00

Q: For the compound CN1CCC(C(C)(O)c2ccc3cnc(Nc4ccc(-c5noc(=O)[nH]5)cc4F)cc3n2)CC1 (stereo not shown) , what pIC50 is on record?
Ans: > 8.00

* * *

Target or test system: CDK2/CycA2 (Homo sapiens)
Procedure summary: CDK2 mobility shift assay (enzymatic activity of CDK2/CycA2)
Type: biochemical
Assay context: 1.25 nM CDK2/CycA2, 37 μM ATP, FL Peptide 18, 120 min at room temperature; read-out: CDK2 IC50
pIC50: −log10 of the molar value.
Measurement name: pIC50

Consider the worked cases shown below.
{"columns": ["Compound", "pIC50"],
 "data": [
  ["OCc1ccn(-c2ccc(Nc3cc4nc(SC5CCNCC5)ccc4cn3)c(F)c2)n1 [Compound 108]", "7.00 to 8.00"],
  ["CN1CCN(S(=O)(=O)c2ccc3cnc(Nc4ccc(-n5ccc(CO)n5)cc4F)cc3n2)CC1 [Compound 245]", "6.00 to 7.00"],
  ["O=C(O)[C@@H]1CNCC[C@@H]1Nc1ccc2cnc(Nc3ccc(-n4ccc(CO)n4)cc3F)cc2n1 (relative stereo) [Compound 131]", "< 6.00"],
  ["COC(=O)CCc1nnc(Nc2cc3nc(S(=O)(=O)C4CCN(C)CC4)ccc3cn2)s1 [Compound 264]", "< 6.00"],
  ["O=S(=O)(c1ccc2cnc(Nc3ccc(-n4ccc(CO)n4)cc3F)cc2n1)C1CCNCC1 [Compound 123]", "6.00 to 7.00"],
  ["CN1CCC(S(=O)(=O)c2ccc3cnc(Nc4ccc(S(=O)(=O)N(C)C)cn4)cc3n2)CC1 [Compound 257]", "7.00 to 8.00"],
  ["CN1CCC(S(=O)(=O)c2ccc3cnc(Nc4ccc5oc(=O)ccc5c4)cc3n2)CC1 [Compound 272]", "6.00 to 7.00"],
  ["COC(=O)c1ccn(-c2ccc(Nc3cc4nc(C(O)C5CCN(C)CC5)ccc4cn3)c(F)c2)n1 (stereo not shown) [Compound 347]", "6.00 to 7.00"]
]}

Q: For the compound Cc1ccc(F)c(Nc2cc3nc(C(O)(C4CCN(C)CC4)C(F)(F)F)ccc3cn2)c1 (stereo not shown) [Compound 390] , what pIC50 is on record?
Ans: < 6.00

Q: For the compound CC(c1ccc2cnc(Nc3ccc(-c4noc(=O)[nH]4)cc3F)cc2n1)C1CCN(C)CC1 (racemic) [Compound 368] , what pIC50 is on record?
Ans: 6.00 to 7.00

Q: For the compound CN1CCC(C(C)(O)c2ccc3cnc(Nc4ccc(-c5cccn(C)c5=O)cc4F)cc3n2)CC1 (stereo not shown) [Compound 352] , what pIC50 is on record?
Ans: 6.00 to 7.00

Q: For the compound CN1CCC(C(C)(O)c2ccc3cnc(Nc4ccc(-c5ccc(=O)n(C)c5)cc4F)cc3n2)CC1 (stereo not shown) [Compound 351] , what pIC50 is on record?
Ans: 7.00 to 8.00

Q: For the compound Nc1cccc(C(=O)Nc2cc3nc(SC4CCNCC4)ccc3cn2)c1 [Compound 136] , what pIC50 is on record?
Ans: 6.00 to 7.00

Q: For the compound CN(c1ccc2cnc(Nc3ccccc3F)cc2n1)C1CCNCC1 [Compound 100] , what pIC50 is on record?
Ans: < 6.00

Q: For the compound C=C(c1ccc2cnc(Nc3ccc(-n4ccc(CO)n4)cc3F)cc2n1)C1CCNCC1 [Compound 139] , what pIC50 is on record?
Ans: 6.00 to 7.00

Q: For the compound CC(c1ccc2cnc(Nc3ccc(-c4cccc(C(N)=O)c4)cc3F)cc2n1)C1CCN(C)CC1 (stereo not shown) [Compound 410] , what pIC50 is on record?
Ans: 6.00 to 7.00
